// provenance: ChEMBL document CHEMBL1129641

metric: Ki (nM)
Give the value, in units of nM, as a plain number.

Summary: Nc1ccc(CC2NCCc3cc(O)c(O)cc32)cc1I (stereo unspecified) , Beta-2 adrenergic receptor (Homo sapiens, UniProt P07550), Ki = 6.46

---

Give PR for every item shown.
target or system: Beta-2 adrenergic receptor (Homo sapiens)
details: CHO
Sequence (P07550 whole entry, looked up): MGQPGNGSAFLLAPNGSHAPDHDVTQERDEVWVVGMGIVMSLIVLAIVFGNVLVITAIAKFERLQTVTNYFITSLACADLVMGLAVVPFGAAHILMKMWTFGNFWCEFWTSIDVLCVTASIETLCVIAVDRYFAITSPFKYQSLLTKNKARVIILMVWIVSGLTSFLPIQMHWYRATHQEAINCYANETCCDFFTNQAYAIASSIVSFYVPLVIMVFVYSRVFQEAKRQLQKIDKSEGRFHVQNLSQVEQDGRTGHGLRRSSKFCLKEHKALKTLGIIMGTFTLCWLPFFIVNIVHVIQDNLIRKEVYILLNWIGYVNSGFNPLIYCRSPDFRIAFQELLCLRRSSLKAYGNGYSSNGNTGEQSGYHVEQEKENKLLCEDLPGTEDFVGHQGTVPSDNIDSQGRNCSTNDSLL
Description: Binding affinity for human beta-2 Adrenoceptor (AR) expressed in CHO cells by radioligand competition binding assays using [125I]-iodocyanopindolol (ICYP); PR = potency ratio relative to TMQ
Please reply with the value in numeric form only.

Summary: COc1cc(C[C@@H]2NCCc3cc(O)c(O)cc32)cc(OC)c1OC , Beta-2 adrenergic receptor (Homo sapiens), PR = 1

Summary: O=C(Nc1ccc(CC2NCCc3cc(O)c(O)cc32)cc1I)c1ccccc1 (stereo not drawn) , Beta-2 adrenergic receptor (Homo sapiens), PR = 22

Summary: Nc1c(I)cc(CC2NCCc3cc(O)c(O)cc32)cc1I (stereo not drawn) , Beta-2 adrenergic receptor (Homo sapiens), PR = 28

Summary: COc1c(I)cc(CC2NCCc3cc(O)c(O)cc32)cc1I (stereo not drawn) , Beta-2 adrenergic receptor (Homo sapiens), PR = 21

Summary: Nc1ccc(CC2NCCc3cc(O)c(O)cc32)cc1I (stereo not drawn) , Beta-2 adrenergic receptor (Homo sapiens), PR = 6.8

Summary: Oc1cc2c(cc1O)C(Cc1cc(C(F)(F)F)cc(C(F)(F)F)c1)NCC2 (stereo not drawn) , Beta-2 adrenergic receptor (Homo sapiens), PR = 0.01

Summary: CC(=O)Nc1ccc(CC2NCCc3cc(O)c(O)cc32)cc1I (stereo not drawn) , Beta-2 adrenergic receptor (Homo sapiens), PR = 5.6

Summary: Oc1cc2c(cc1O)C(Cc1cc(I)c(I)c(I)c1)NCC2 (stereo not drawn) , Beta-2 adrenergic receptor (Homo sapiens), PR = 29
